experiment.summary: inhibitors of TNFa-induced NFkB p65 translocation, primary screen, imaging, HUVEC, MLSMR starter and 10KST1 sets (AID 438);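 note: compound added about 3h40 before a 20 min TNFalpha stimulation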
test.conditions: HUVEC TNFa-induced p65 nuclear translocation; measured here: nuclei count (cytotoxicity indicator), at 2.08 µM
endpoint.label: cell count
Answers are plain numbers.

In [3]: df
Out[3]:
                                   compound  observed_measurement
0  COCc1cc(C)nc(SCC(=O)Nc2ccc(C)c(C)c2)c1C#N                   618
1  C1CCC(C(CC2CCCCN2)C2CCCCC2)CC1 (configuration not stated)                   585
2  CC(C)C1Cc2c(sc3c2c(=O)n(-c2ccccc2)c2nncn32)CO1 (configuration not stated)                   603
3                  CN(C)c1nc2n(c(=S)n1)CCS2                   604
4       COc1cccc(-c2nnc3sc(-c4cccs4)nn23)c1                   595

Parameters: items (list). Returns: cell count for each item.
1. CC1(C)Cc2c(C#N)c(NCCc3ccccc3)nc(-c3ccco3)c2CO1
2. O=C(O)c1cc2n(n1)C(C(F)(F)F)CC(c1ccccc1)N2 (configuration not stated)

Data returned:
1: 585; 2: 514

----------
study.target: Dual specificity protein phosphatase 6 (Homo sapiens)
experiment.summary: DUSP6 inhibitors restoring Erk phosphorylation by chemical complementation, primary imaging in DUSP6-transfected HeLa (AID 609);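 note: phospho-Erk level distribution per well compared with pooled transfected vehicle control wells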
test.conditions: HeLa MKP-3 transfected, phospho-Erk imaging KS statistic; at 10 µM; stronger effect = higher value; cells stimulated with TPA for 15 min
endpoint.label: inhibition (%)
Give bare numbers, in %.

>>> print(df.to_string())
                      compound  observed_measurement
0  C/C(=N\O)C(=O)NCCCNCCCN(C)C                 -3.95

Parameters: items (list). Returns: inhibition for each item.
1. CC(=O)N1CCN(c2nc(CC(C)C)c3c(c2C#N)CCC3)CC1
2. CCCC(=O)N(Cc1cc2ccccc2[nH]c1=O)c1ccccc1OC
3. CC(=O)Oc1ccccc1C1OC(=O)c2ccccc2N1C(C)=O (stereo unspecified)
4. CC1(C)Cc2nc(N)c(C(=O)NCCO)cc2CO1
5. Cc1c(O)c(CN2CCCC(C)C2)cc2c3c(c(=O)oc12)CCC3 (stereo unspecified)
6. Cn1c(SCC(=O)N2CCOCC2)nnc1-c1cccc(NC(=O)c2ccccc2F)c1
7. CCOC(=O)c1ccc(NC(=O)CCC(CC)C(=O)O)cc1 (stereo unspecified)
8. CCc1ccc(NC(=O)CSC2=C(C#N)C(c3ccco3)C3=C(CCCC3=O)N2)cc1 (stereo unspecified)

Data returned:
[5.26, 17.7, 17.7, -3.98, -8.95, 1.63, 27.7, 5.57]

Parameters: items (list). Returns: inhibition for each item.
1. CC(=O)Nc1cc2c(cc1Br)OCCO2
2. Cc1ccc(-c2nn3c(-c4cccc(Cl)c4)nnc3s2)cc1

Data returned:
[16.1, -7.86]

----------
experiment.summary: PubChem AID 1714;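 note: raw slope of fluorescence over initial fluorescence between 10 and 20 s after thallium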
test.conditions: HEK293-KCC2 + bumetanide/ouabain, thallium flux FluoZin2; at 10 µM
The other results are listed elsewhere or left out. Records with an inconclusive call do not appear. The source made the active and inactive calls.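 Rule for the calls: active = thallium entry rate above the same plate's blocked-transporter control wells by more than 3 SD; inconclusive = the two repeat wells disagree; inactive = the rest.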
The reply should be one of these categories: active, inactive

# example entries with known answers
In [3]: df
Out[3]:
                                   compound       cat
0  O=C(NC(CC(=O)N1CCN(c2ccccc2)CC1)c1ccccc1)c1ccccc1Cl (stereo not drawn)  inactive
1      S=C(NN=C1CCN(Cc2ccccc2)CC1)NC1CCCCC1  inactive
2  O=[N+]([O-])c1ccccc1/C=N/n1c(COc2ccccc2)n[nH]c1=S    active
3  O=C(COC(=O)c1cc([N+](=O)[O-])ccc1NCc1ccccc1)NC1CCCCC1  inactive

Data request: Give the logged outcome of this assay for the following compound: "C=CCn1c(=S)[nH]c2nc3c(cc2c1=O)COC(C)(C)C3"
Data returned: active

Data request: Give the logged outcome of this assay for the following compound: CCC(C)Cn1c(O)cc2nn(-c3nc4ccccc4s3)c(=O)c-2c1C (stereo not drawn)
Data returned: active

Data request: Give the logged outcome of this assay for the following compound: "C/C(=N\NC(=S)Nc1ccc(C)cc1)c1cc2ccccc2o1"
Data returned: active

Data request: Give the logged outcome of this assay for the following compound: O=C(Nc1ccccc1F)C1C2C=CC3(O2)C1C(=O)N(c1cccnc1)C3C(=O)NC1CCCCC1 (stereo not drawn)
Data returned: active

Data request: Give the logged outcome of this assay for the following compound: "O=c1c2ccccc2[nH]c(=S)n1CCN1CCC(=C(c2ccc(F)cc2)c2ccc(F)cc2)CC1"
Data returned: active

Data request: Give the logged outcome of this assay for the following compound: "Cc1ccc(C)c(NC(=S)NNC(=S)Nc2ccc(C(C)C)cc2)c1"
Data returned: active

Data request: Give the logged outcome of this assay for the following compound: "CCNCc1cc2cc(C)ccc2[nH]c1=O"
Data returned: inactive

Data request: Give the logged outcome of this assay for the following compound: "COc1ccccc1-n1cnc2cc(NS(=O)(=O)c3ccccc3)ccc21"
Data returned: inactive

Data request: Give the logged outcome of this assay for the following compound: "C=CCNC(=S)N/N=C/c1ccc(C)s1"
Data returned: active

Data request: Give the logged outcome of this assay for the following compound: "Cc1ccc(C)c(NC(=S)NNC(=O)c2csc(C)c2)c1"
Data returned: active

Data request: Give the logged outcome of this assay for the following compound: "COc1cccc(CNC(=O)Cc2csc(Nc3nc(=S)[nH]c4ccccc34)n2)c1"
Data returned: active

Data request: Give the logged outcome of this assay for the following compound: "CCn1c(SCc2ccccc2)nc2c(c1=O)SCC2"
Data returned: inactive

Data request: Give the logged outcome of this assay for the following compound: O=C(Nc1nc2c(F)cc(F)cc2s1)C1COc2ccccc2O1 (stereo not drawn)
Data returned: active

Data request: Give the logged outcome of this assay for the following compound: "COc1ccc(-c2cn(-c3ccc(OC)cc3)c(=S)[nH]2)cc1"
Data returned: active

Data request: Give the logged outcome of this assay for the following compound: "COc1cccc(-c2nnc(NC(=O)c3ccc(S(=O)(=O)N(CC(C)C)CC(C)C)cc3)o2)c1"
Data returned: active

Data request: Give the logged outcome of this assay for the following compound: CC/S(CC1CC1(Cl)Cl)=N\S(=O)(=O)c1ccc(C)cc1 (stereo not drawn)
Data returned: inactive

Data request: Give the logged outcome of this assay for the following compound: COc1ccc(C2/C=C\CN(S(=O)(=O)c3cccs3)CC(=O)N2Cc2ccc(F)cc2)cc1 (stereo not drawn)
Data returned: inactive

Data request: Give the logged outcome of this assay for the following compound: "O=c1oc2ccccc2cc1-c1cn(-c2ccccc2)c(=S)[nH]1"
Data returned: active

Data request: Give the logged outcome of this assay for the following compound: "O=S(=O)(c1cccc(S(=O)(=O)N2CCC(n3nnc4ccccc43)CC2)c1)N1CCCCC1"
Data returned: inactive
